B1: ZNF207 (parent)
chain: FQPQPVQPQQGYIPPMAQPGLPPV

variants of: B1; assay: protein stability index of a GFP-peptide fusion (GPS, HEK-293T) (PSI 1-6); higher = more stable; settings: c terminus: a fixed tail appended;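 note: lentivirally expressed fusions sorted by FACS into six bins by GFP to DsRed ratio, PSI derived from sequencing read proportions per bin multiplied by bin number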
A collection of variants and their measured protein stability index
Form rule: numeric answer, no unit written next to it.

These solved cases illustrate the format of a correct answer.
[[record]]
mutation_descriptor = "F1V"
endpoint_value = 3.91

[[record]]
mutation_descriptor = "L21G"
endpoint_value = 3.24

[[record]]
mutation_descriptor = "P19L"
endpoint_value = 2.7


Bench note: what protein stability index did L21V show?
2.73

Bench note: what protein stability index did P3I show?
2.67
